# Tested on: K-562 leukemia
# Experimental protocol: NCI-60 one-dose screen, 48 h (100 = growth as untreated, 0 = no growth, -100 = all killed)
# Measurement parameters: 10 µM unless noted
This is part of a sample that, as a whole, favours compounds with a hit. Of some 83,000 tested, about 20% had one in any assay.
Each entry falls into one class according to its growth; the ranges are class 1 (below 20%), class 2 (20% to below 70%), class 3 (70% or more)

Query :: Record O=c1[nH]c2ccccc2cc1CSc1ccccc1Nc1nccc(-c2ccc3c(c2)OCO3)n1 — which class?
Result :: class 3

Query :: Band assignment needed for Fc1ccc(Nc2nnc(-c3c[nH]c4ccccc34)o2)cc1 please.
Result :: class 2

Query :: Class (by measured growth) for CS(=O)(=O)Nc1cc(-c2ccc3ncnc(N4CCc5cc(F)c(Cl)cc54)c3c2)cnc1Cl
Result :: class 2

Query :: Which category fits this record: Cc1ccc(N=Nc2c(N)nn3c(-c4cc5ccccc5oc4=O)ccnc23)cc1
Result :: class 2

Query :: Which growth band matches O=C(Nc1ccc(Cl)c(C(F)(F)F)c1)N1CCN(c2cc(-c3cn(-c4ccccc4)nc3-c3cccc(O)c3)ccn2)CC1 ?
Result :: class 1

Query :: Into which bin does this compound go? Cn1cc(-c2cc3nc(-c4cn(C)c5ncc(Br)cc45)cc(N)n3n2)c2cc(F)ccc21
Result :: class 2

Query :: Category of O=C1CC(c2ccc(I)cc2)OC2C=Cc3ccccc3C12 (centres undefined) , please.
Result :: class 3

Query :: Please classify: Cc1ccc(C2CC(c3ccc(NC(=S)Nc4ccccc4)cc3)=NN2c2ccc(S(N)(=O)=O)cc2)cc1 (centres undefined)
Result :: class 2

Query :: Quick check: band for C/C(=N/O)c1ccc(NC(=O)CSc2nnc(-c3ccc4nc(-c5ccc(Cl)cc5)[nH]c4c3)o2)cc1
Result :: class 1

----------
# Tested on: PC-3 prostate
# Experimental protocol: NCI-60 one-dose screen, 48 h
# Measurement parameters: 10 µM unless noted
The panel holds about 83,000 compounds, 20% with a hit somewhere; the sample as a whole holds those more often. Active and inactive are the calls of the source. Rule for the calls: active = growth percent below 10; inactive = the rest.
Please state which outcome applies, choosing from Yes (active), No (inactive)

Query :: Each compound tested received a call. Report the one for C#CCN(C)CCCOc1ccc(N(CC)C(=O)c2cc(C(C)C)c(O)cc2O)cc1Cl .
Result :: No

Query :: Which result was noted for this compound in the test: CN1CCN(C(=O)Oc2cc3c(c4ccccc24)[C@H](CCl)CN3C(=O)c2cc3cc(OCCCN4CCC4)ccc3[nH]2)[C@H]2CSSC[C@H]21
Result :: Yes

Query :: GET /call?item= O=C(CSc1nc2sc3c(c2c(=O)n1-c1ccc(Cl)cc1)CCCC3)N/N=C/C=C/c1ccccc1 returns the recorded outcome of this test.
Result :: Yes

Query :: Dear colleague, could you share the recorded outcome for COc1c(B(O)O)cc(F)cc1-c1nc2c(F)cc3[nH]ncc3c2c2c1CCCC2 when you have a moment?
Result :: No

----------
Provide the reported growth of each item.
# Tested on: EKVX NSCLC
# Experimental protocol: NCI-60 one-dose screen, 48 h (100 = growth as untreated, 0 = no growth, -100 = all killed)
# Measurement parameters: 10 µM unless noted
About 83,000 compounds went through this panel and 20% of them were active in at least one assay; those are over-represented in the sample as a whole.
Reply numerically in %, unit not repeated.

Query :: State its growth for this compound: CCOc1ccccc1[C@H]1C(C(=O)c2ccc(Cl)cc2)C2(N[C@@H]1c1ccccc1)C(=O)Nc1ccc(Br)cc12 (stereo partly drawn)
Result :: 3.88

Query :: Find the measured growth of N#CC1=C(c2cccs2)Nc2c(c(-c3ccccc3)nn2-c2ccccc2)C12C(=O)Nc1ccc(Cl)cc12 (stereo not drawn) and report it.
Result :: 13.3

Query :: Please report growth for the following compound: Cn1cc(-c2cc(N)n3nc(-c4c[nH]c5ccc(F)cc45)cc3n2)c2cccnc21
Result :: -64.9

Query :: Tell me growth reported for COc1cc(NC(=O)CSc2nnc(-c3ccc(-c4nc5ccc(Cl)cc5[nH]4)cc3)o2)cc(OC)c1OC
Result :: 81.1

Query :: Tell me measured growth for COc1ccc(/C=C/C(=O)c2ccc(OC)c(S(N)(=O)=O)c2)c(C(F)(F)F)c1 please.
Result :: 14.5

Query :: Give recorded growth. COc1ccc(-c2cc(-c3cc(C(C)C)c(O)cc3C)nn2-c2ccc(S(N)(=O)=O)cc2)cc1
Result :: 61.1

Query :: // fetch growth given entry O=C1/C(=C/C=C/c2ccco2)SC(=S)N1CC(=S)C1C=CS(=O)(=O)C1 (stereo not drawn)
Result :: 94

Query :: Identify measured growth associated with COc1ccc(N=Nc2c(N)nn3c(N)c(C#N)c(-c4ccc(C)cc4)nc23)cc1
Result :: 36.3

Query :: Please report growth for the following compound: Cn1cc(-c2cc(N)n3nc(-c4c[nH]c5ccc(Cl)cc45)cc3n2)c2cc(Br)cnc21
Result :: 0.312

Query :: Please supply the value of reported growth for the item CN(CCSSCCN1CCOCC1)C(=O)Oc1cc2c(c3ccccc13)[C@H](CCl)CN2C(=O)c1cc2cc(OCCCN3CCC3)ccc2[nH]1
Result :: -61.3

Query :: Please list growth recorded for the compound CCCCCCCOc1ccc(S(=O)(=O)Nc2ccc(C)c(F)c2C(=O)O)cc1
Result :: 95.4

Query :: Provide growth value for the following compound: Cn1ncc2c(N)nc(Oc3ccccc3-c3ccccc3)nc21
Result :: 41.6

Query :: Hello, please tell me recorded growth for this one: CCCCNc1ccc2c3c(cccc13)C(=O)N(NCC(O)COc1ccc3c(C)cc(=O)oc3c1)C2=O (stereo not drawn)
Result :: 77.4

Query :: Recall and state the measured growth for Cc1nn(-c2ccccc2)c2ncn(CC(=O)N/N=C/c3ccccc3O)c(=O)c12 .
Result :: 13.3

Query :: Note growth for the compound shown: N#CCc1nnc(NC(=O)c2ccc(-n3c(=O)[nH]c4ccccc4c3=O)cc2)s1
Result :: 94.8

Query :: Return value of growth for input CCN1CCN(Cc2ccc(C(=O)Nc3cccc(Nc4ccc5c(OC)cccc5n4)c3)cc2C(F)(F)F)CC1 , no commentary.
Result :: -95.7

Query :: Return reported growth. Input compound: CCOc1ccc2[nH]c(=O)c(C(c3nnnn3CC3CCCO3)N3CCN(Cc4ccccc4)CC3)cc2c1 (stereo not drawn)
Result :: 86.9

Query :: Hello, please tell me recorded growth for this one: FC(F)(F)c1cc2c(Cl)ncnc2n1CCN1CCOCC1
Result :: 92.8
